- EXPERIMENTAL TARGET: sGC α1/β1 heterodimer stably expressed in CHO-K1 cell line (CHO-K1/sGC) (Homo sapiens, UniProt Q02108+Q02153)
- Construct: expressed in transfected cells
- ASSAY TEXT: Cell-based sGC Functional Assay (CASA Assay), cGMP generation
- ASSAY CONDITIONS: CHO-K1/sGC cells, 1 hr at 37° C., cGMP by HTRF, 4P fit; presence or absence of 1 μM DETA-NO not given; read-out: IP (nM) (inflection point)
MEASUREMENT NAME: EC50 (nM)

| MOLECULE | QUANTITATIVE RESULT |
| --- | --- |
| CCCc1nc(-c2nc(N)c3c(n2)NC(=O)C3(c2ccc(F)c(F)c2)C2CC2)cn2ncnc12 (stereo not shown) [Example 58A] | 242 |
| CCCc1nc(-c2nc(N)c3c(n2)NC(=O)[C@@]3(C)c2ccc(F)cc2)cn2ncnc12 [Example 52A] | 63.2 |
| CC1(c2ccc(Cl)cc2)C(=O)Nc2nc(-c3cn4ncnc4c(CCC(F)(F)F)n3)nc(O)c21 (stereo not shown) [Example 152A] | 133 |
| Cc1nc2c(CCC(F)(F)C(F)(F)F)nc(-c3nc(N)c4c(n3)NC(=O)C4(C)c3ccc(Cl)c(F)c3)cn2n1 (stereo not shown) [Example 90B] | 36.6 |

---

Catalogue of Emax values
- EXPERIMENTAL TARGET: sGC α1/β1 heterodimer stably expressed in CHO-K1 cell line (CHO-K1/sGC) (Homo sapiens, UniProt Q02108+Q02153)
- Construct: expressed in transfected cells
- Sequence (Q02108 1-690): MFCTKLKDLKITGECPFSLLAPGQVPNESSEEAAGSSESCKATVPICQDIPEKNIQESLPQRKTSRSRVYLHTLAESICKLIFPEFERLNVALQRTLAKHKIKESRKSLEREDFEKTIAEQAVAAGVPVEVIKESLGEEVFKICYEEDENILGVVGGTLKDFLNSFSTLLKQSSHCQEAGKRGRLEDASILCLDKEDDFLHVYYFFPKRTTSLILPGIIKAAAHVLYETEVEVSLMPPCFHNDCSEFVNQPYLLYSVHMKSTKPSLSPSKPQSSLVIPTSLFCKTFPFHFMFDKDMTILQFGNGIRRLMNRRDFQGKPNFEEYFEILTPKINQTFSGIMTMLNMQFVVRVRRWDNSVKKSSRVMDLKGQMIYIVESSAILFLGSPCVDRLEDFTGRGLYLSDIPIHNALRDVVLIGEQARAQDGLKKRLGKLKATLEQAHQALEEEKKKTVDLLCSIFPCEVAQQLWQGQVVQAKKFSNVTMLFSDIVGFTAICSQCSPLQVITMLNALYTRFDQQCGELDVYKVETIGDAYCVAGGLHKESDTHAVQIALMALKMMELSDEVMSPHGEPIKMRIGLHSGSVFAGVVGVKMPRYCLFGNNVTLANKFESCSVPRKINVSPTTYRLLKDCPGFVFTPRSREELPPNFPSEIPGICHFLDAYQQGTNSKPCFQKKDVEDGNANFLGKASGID
- Sequence (Q02153 1-619): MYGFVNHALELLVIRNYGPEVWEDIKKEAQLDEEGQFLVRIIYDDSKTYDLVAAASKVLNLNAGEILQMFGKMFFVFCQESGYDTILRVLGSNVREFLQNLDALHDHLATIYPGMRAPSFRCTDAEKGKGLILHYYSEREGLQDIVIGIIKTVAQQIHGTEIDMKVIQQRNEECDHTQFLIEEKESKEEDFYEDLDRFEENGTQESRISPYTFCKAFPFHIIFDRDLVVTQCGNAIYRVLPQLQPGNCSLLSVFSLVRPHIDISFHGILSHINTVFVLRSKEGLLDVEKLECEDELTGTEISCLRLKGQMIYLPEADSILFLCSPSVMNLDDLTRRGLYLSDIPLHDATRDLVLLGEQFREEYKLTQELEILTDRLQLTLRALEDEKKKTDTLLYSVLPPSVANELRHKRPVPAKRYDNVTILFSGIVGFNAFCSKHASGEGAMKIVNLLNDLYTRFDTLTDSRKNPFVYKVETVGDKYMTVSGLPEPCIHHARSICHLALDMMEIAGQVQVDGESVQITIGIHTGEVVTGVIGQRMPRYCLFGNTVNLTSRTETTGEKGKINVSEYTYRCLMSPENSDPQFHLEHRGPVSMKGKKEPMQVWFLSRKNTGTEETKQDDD
- ASSAY TEXT: Cell-based sGC Functional Assay (CASA Assay), cGMP generation
- ASSAY CONDITIONS: CHO-K1/sGC cells, 1 hr at 37° C., cGMP by HTRF; presence or absence of 1 μM DETA-NO not given; read-out: % Act. (percent activation relative to maximum cGMP production of Compound A = 100%)
MEASUREMENT NAME: Emax (%)

| MOLECULE | MEASUREMENT NAME | QUANTITATIVE RESULT |
| --- | --- | --- |
| CCCCc1nc(-c2nc(O)c3c(n2)NC(=O)C3(C)c2cccc(F)c2)cn2ncnc12 (stereo not shown) [Example 171A] | Emax | 90 |
| CCCCc1nc(-c2nc(N)c3c(n2)NC(=O)C3(C)c2ccc(F)c(F)c2)cn2ncnc12 (stereo not shown) [Example 64B] | Emax | 90 |
| C[C@@]1(c2ccc(F)cc2)C(=O)Nc2nc(-c3cn4ncnc4c(Cc4ccc(F)cc4)n3)nc(O)c21 [Example 162B] | Emax | 100 |
| CC1(c2cccc(F)c2)C(=O)Nc2nc(-c3cn4ncnc4c(CCC(F)(F)C(F)(F)F)n3)nc(N)c21 (stereo not shown) [Example 14B] | Emax | 90 |
